Origin of the recorded values: patent US20220064275A1

- target-under-test: T1, human LTBP3-proTGFβ1 complex (human, UniProt Q9NS15 866-1039)
- T1 construct: range 866-1039; also called hLTBP3-proTGFβ1; hLTBP3
- T1 sequence (Q9NS15 866-1039 limits assumed, chain 1 of 2): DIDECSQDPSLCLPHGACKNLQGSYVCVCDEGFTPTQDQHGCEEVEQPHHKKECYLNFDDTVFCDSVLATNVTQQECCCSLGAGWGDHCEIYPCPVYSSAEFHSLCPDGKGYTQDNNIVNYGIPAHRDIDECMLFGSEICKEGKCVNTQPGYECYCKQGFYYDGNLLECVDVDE
- T1 sequence (chain, as listed by the source limits assumed, chain 2 of 2): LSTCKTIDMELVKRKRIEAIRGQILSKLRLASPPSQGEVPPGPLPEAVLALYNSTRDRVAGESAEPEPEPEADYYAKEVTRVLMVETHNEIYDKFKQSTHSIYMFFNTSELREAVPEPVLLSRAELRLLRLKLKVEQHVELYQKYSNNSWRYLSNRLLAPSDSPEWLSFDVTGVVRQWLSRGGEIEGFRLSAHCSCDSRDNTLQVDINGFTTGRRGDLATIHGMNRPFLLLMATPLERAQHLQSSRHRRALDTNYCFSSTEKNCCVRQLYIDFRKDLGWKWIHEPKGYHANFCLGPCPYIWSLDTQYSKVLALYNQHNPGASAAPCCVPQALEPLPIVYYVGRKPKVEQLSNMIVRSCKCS
- experimental-protocol: BLI (Octet)
The following binders are listed with their measured Kd values.
Expressed in nM, but write only the number.

Observe how each entry below is paired with its result.
Consider the binder shown here: Ab31 (antibody, IgG4, V domains shown) VH: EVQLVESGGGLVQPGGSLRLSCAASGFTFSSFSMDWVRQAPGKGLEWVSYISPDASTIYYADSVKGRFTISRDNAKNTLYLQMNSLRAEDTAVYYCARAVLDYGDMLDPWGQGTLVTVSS VL: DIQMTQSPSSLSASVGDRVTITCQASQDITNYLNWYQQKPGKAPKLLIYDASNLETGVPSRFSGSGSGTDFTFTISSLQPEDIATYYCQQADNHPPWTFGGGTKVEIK What is its recorded Kd?
0.181

Consider the binder shown here: Ab15 (antibody, V domains shown) VH: EVQLVESGGGVVQPGRSLRLSCAASGFTFSDYAMVWVRQAPGKGLEWVSAISGSGFTTYYADSVKGRFTISRDNSKNTLYLQMNSLRAEDTAVYYCARVSSGHWDFDYWGQGTLVTVSS VL: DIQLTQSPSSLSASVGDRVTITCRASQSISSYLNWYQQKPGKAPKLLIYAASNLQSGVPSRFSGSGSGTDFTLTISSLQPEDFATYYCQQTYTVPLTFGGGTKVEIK What is its recorded Kd?
0.168

Read the next record carefully.
Consider the binder shown here: Ab32 (antibody, IgG4, V domains shown) VH: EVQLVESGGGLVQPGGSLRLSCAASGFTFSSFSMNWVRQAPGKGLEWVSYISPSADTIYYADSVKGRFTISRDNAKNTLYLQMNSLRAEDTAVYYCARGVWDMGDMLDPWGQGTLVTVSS VL: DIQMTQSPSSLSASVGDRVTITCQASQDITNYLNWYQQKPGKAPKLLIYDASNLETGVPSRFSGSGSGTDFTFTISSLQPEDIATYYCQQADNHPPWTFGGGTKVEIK What is its recorded Kd?
0.215
